Target: FGF14:Nav1.6 C-tail complex (Homo sapiens, UniProt Q92915+Q9UQD0)
Construct: polymerase chain reaction (PCR) amplification of the FGF14 open reading frame (nt 1–855); C-terminal fragment of Nav1.6 (amino acids 1763–1976) fused with CD4ΔC-tail (amino acids 1–395); expressed in transfected cells
Sequence (Q92915 1-252 isoform Q92915-2): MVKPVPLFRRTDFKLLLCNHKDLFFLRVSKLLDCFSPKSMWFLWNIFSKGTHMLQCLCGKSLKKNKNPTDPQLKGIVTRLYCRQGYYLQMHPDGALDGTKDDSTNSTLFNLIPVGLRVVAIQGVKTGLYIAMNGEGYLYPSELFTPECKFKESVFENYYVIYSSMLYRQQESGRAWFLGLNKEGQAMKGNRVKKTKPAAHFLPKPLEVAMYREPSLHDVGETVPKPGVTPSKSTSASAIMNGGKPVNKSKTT
Sequence (Q9UQD0 1763-1976 limits assumed): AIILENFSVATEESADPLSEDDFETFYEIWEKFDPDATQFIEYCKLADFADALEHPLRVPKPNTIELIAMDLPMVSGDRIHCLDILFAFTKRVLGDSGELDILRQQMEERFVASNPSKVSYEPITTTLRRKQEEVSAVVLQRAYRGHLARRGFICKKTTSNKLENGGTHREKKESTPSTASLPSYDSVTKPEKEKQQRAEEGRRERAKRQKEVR
Assay: Split-luciferase complementation assay (LCA) in Clone V double stable HEK293 cells
Type: cell-based
Details: agonists; Clone V cells, 384-well; normalized to DMSO
Consider the following compounds and their measured EMax (% Luminescence) readings.
measured.attribute: EMax (% Luminescence)

compound | measured.attribute | observed
O=c1[nH]c(=O)n([C@H]2C[C@H](O)[C@@H](CO)O2)cc1F [Floxuridine, reference compound] | EMax (% Luminescence) | 146.01
Nc1ncn([C@H]2C[C@H](O)[C@@H](CO)O2)c(=O)n1 [Decitabine, reference compound] | EMax (% Luminescence) | 191.40
CS(=O)(=O)c1ccc(C(=O)Nc2ccc(Cl)c(-c3ccccn3)c2)c(Cl)c1 [Vismodegib, reference compound] | EMax (% Luminescence) | 161.54
CC[C@]1(O)C[C@@H]2CN(CCc3c([nH]c4ccccc34)[C@@](C(=O)OC)(c3cc4c(cc3OC)N(C)[C@H]3[C@@](O)(C(=O)OC)[C@H](OC(C)=O)[C@]5(CC)C=CCN6CC[C@]43[C@@H]65)C2)C1 [Vinblastine, reference compound] | EMax (% Luminescence) | 191.58
CC[C@]1(O)C[C@H]2CN(CCc3c([nH]c4ccccc34)[C@@](C(=O)OC)(c3cc4c(cc3OC)N(C=O)[C@H]3[C@@](O)(C(=O)OC)[C@H](OC(C)=O)[C@]5(CC)C=CCN6CC[C@]43[C@@H]65)C2)C1 [Vincristine, reference compound] | EMax (% Luminescence) | 198.49
O=C(O)CCCc1ccc(N(CCCl)CCCl)cc1 [Chlorambucil, reference compound] | EMax (% Luminescence) | 252.88
CCC1=C[C@@H]2CN(C1)Cc1c([nH]c3ccccc13)[C@@](C(=O)OC)(c1cc3c(cc1OC)N(C)[C@H]1[C@@](O)(C(=O)OC)[C@H](OC(C)=O)[C@]4(CC)C=CCN5CC[C@]31[C@@H]54)C2 [Vinorelbine, reference compound] | EMax (% Luminescence) | 208.53

###

As an illustration, consider measured Toxicity Assay Z-score (CTB cell viability) for compounds on Clone V cells.
measured.attribute: Toxicity Assay Z-score (CTB cell viability)

compound | observed
N.N.O=C([O-])C1(C(=O)[O-])CCC1.[Pt+2] [Carboplatin] | 1.29
Cc1nc2c(c(=O)[nH]1)CSCC2 [DR 2313] | 0.88
Nc1ncnc2c1c(-c1cnc3[nH]ccc3c1)nn2C1CCCC1 [PP121, reference compound] | 1.57
CS(=O)(=O)CCNCc1ccc(-c2ccc3ncnc(Nc4ccc(OCc5cccc(F)c5)c(Cl)c4)c3c2)o1 [Lapatinib] | 1.97
Cc1cc(C(C)Nc2ccccc2)c2nc(N3CCOCC3)cc(=O)n2c1 (stereo not shown) [TGX 221] | 2.19
N#Cc1c(O)c2c(-c3ccc(-c4ccccc4O)cc3)csc2[nH]c1=O [Compound A-769662] | 1.05
NC(=O)c1ncn([C@@H]2O[C@H](CO)[C@@H](O)[C@H]2O)c1N [AICAR] | 1.16
Cn1cc(/C=C2\C(=O)Nc3cccnc32)c2ccccc21 [GW 441756] | 1.07
O=C1NC(=O)/C(=C/c2ccc3c(c2)OCO3)S1 [AS-041164] | 1.87
c1cc(-c2cnn3cc(-c4ccc(OCCN5CCCCC5)cc4)cnc23)ccn1 [COMPOUND C] | 2.16
CCN(CC)CCCC(C)Nc1nc(C)cc(Nc2ccc3nc(C)cc(N)c3c2)n1 (stereo not shown) [NSC23766] | 1.59
Cc1nc2sccn2c(=O)c1CCN1CCC(=C(c2ccccc2)c2ccc(F)cc2)CC1 [Compound R59022] | 1.92
NC(=O)c1ccc2[nH]ccc2c1 [SD 169] | 0.56
O=C1NC(=O)/C(=C/c2ccc(-c3ccc(F)cc3O)o2)S1 [AS 252424] | -0.07
NC(=O)NO [Hydroxyurea] | 2.16
NS(=O)(=O)c1nn2cc(-c3ccccc3)nc2s1 [AEG 3482] | 0.74
Nc1ccccc1NC(=O)c1ccc(CNC(=O)OCc2cccnc2)cc1 [MS-275] | 0.16
COc1cc(N2CCC(N3CCN(C)CC3)CC2)ccc1Nc1ncc(Cl)c(Nc2ccccc2S(=O)(=O)C(C)C)n1 [NVP TAE684] | -8.69
O=C1NC(=O)/C(=C/c2ccc3c(c2)OC(F)(F)O3)S1 [AS-604850] | 2.25
